Target: K15A-TTR (Homo sapiens, UniProt P02766, K35A)
Construct: composed of 127-residue β-sheet-rich subunits; made in house
Test: RP-HPLC analysis of reaction with K15A-TTR homotetramer
Format: binding
measure: reaction with K15A-TTR (in words)

> print(dat)
                                   molecule         reading
1  Cc1cc(/C=C/c2cc(C(=O)Oc3ccc(F)cc3)cc(N(C)C)c2)cc(C)c1O [Compound A1]  no conjugation
2  Cc1cc(/C=C/c2cc(C(=O)Sc3ccc(F)cc3)cc(N(C)C)c2)cc(C)c1O [Compound A2]  no conjugation

* * *

The reader will find reported % Modification of TTR subunits in Human Blood Plasma values listed item by item below.
Biological target: TTR in human blood plasma (Homo sapiens, UniProt P02766)
Construct: RP-HPLC analysis of TTR captured from human plasma; from tissue; host or cells: human blood plasma
Experiment: Modification of TTR in human blood plasma (immunocapture, RP-HPLC)
Assay type: binding
Details: compound 10.8 μM, 24 hours, 37° C.; maximum 50%
Procedure: Compounds 1-4 (10.8 μM) were incubated for 24 hours at 37° C. with human plasma, wherein the TTR concentration is 3.6-5.4 μM. Furthermore, compound A2 was evaluated to determine its ability to bind selectively to and then react chemoselectively with TTR over the 4000+ other proteins in human blood plasma. […] The modification ratio of TTR by kinetic stabilizers in human plasma was evaluated as described [Purkey et al., Proc. Natl. Acad. Sci. U.S.A. 98:5566-5571 (2001)] with minor modifications. […]

# get_value(readout='% Modification of TTR subunits in Human Blood Plasma', item= "Cc1cc(/C=C/c2cccc(C(=O)Oc3ccccc3[N+](=O)[O-])c2)cc(C)c1O" ) 49% (±0.7%)

# get_value(readout='% Modification of TTR subunits in Human Blood Plasma', item= "Cc1cc(/C=C/c2cccc(C(=O)Sc3ccccc3)c2)cc(C)c1O" ) 48% (±1.3%)

# get_value(readout='% Modification of TTR subunits in Human Blood Plasma', item= "O=C(Sc1ccccc1)c1cccc(/C=C/c2cc(Br)c(O)c(Br)c2)c1" ) 36% (±0.4%)

# get_value(readout='% Modification of TTR subunits in Human Blood Plasma', item= "Cc1cc(/C=C/c2cc(C(=O)Sc3ccc(F)cc3)cc(N(C)C)c2)cc(C)c1O" ) 48%

* * *

Target: WT-TTR (Homo sapiens, UniProt P02766)
Construct: composed of 127-residue β-sheet-rich subunits; made in house; host or cells: E. coli
Assay: Acid-mediated WT-TTR fibril formation assay (turbidity at 400 nm)
Type: biochemical
Conditions: WT-TTR […], % fibril formation after 72 hours; read-out: IC50 (apparent), inhibition of WT-TTR amyloidogenesis
measure: IC50 (nM)

> print(dat)
                                   compound  measure  reading
1  O=C(Sc1ccccc1)c1cccc(/C=C/c2cc(Br)c(O)c(Br)c2)c1 [Compound 1]     IC50     2000
2  Cc1cc(/C=C/c2cccc(C(=O)Sc3ccccc3)c2)cc(C)c1O [Compound 2]     IC50     2000

* * *

Molecular target: WT-TTR (Homo sapiens)
Construct: composed of 127-residue β-sheet-rich subunits; made in house; host or cells: E. coli
Experiment: Acid-mediated WT-TTR fibril formation assay (turbidity at 400 nm)
Type: biochemical
Conditions: WT-TTR 3.6 μM, % fibril formation after 72 hours; read-out: IC50 (apparent), inhibition of WT-TTR amyloidogenesis
pIC50: −log10 of the molar value.
The reader will find reported pIC50 values listed item by item below.

Answered examples (2):
> print(dat)
                                   compound       reading
1  Cc1cc(/C=C/c2ccc(C(=O)O)cc2)cc(C)c1O [Compound 8, reference compound]         ~5.52
2  Cc1cc(/C=C/c2cccc(C(=O)Oc3ccccc3[N+](=O)[O-])c2)cc(C)c1O  5.65 to 5.71

I'm curious: which pIC50 was measured for "O=C(Sc1ccccc1)c1cccc(/C=C/c2cc(Br)c(O)c(Br)c2)c1" tested on WT-TTR (Homo sapiens)? 5.65 to 5.71

I'm curious: which pIC50 was measured for "Cc1cc(/C=C/c2cccc(C(=O)Sc3ccccc3)c2)cc(C)c1O" tested on WT-TTR (Homo sapiens)? 5.65 to 5.71
